target: GST-NEMO-(2–200) and biotinylated IKK-1/2 chimeric 44-mer peptide (Homo sapiens); assay: Time-resolved FRET binding assay
Sequence (Q9Y6K9 2-200, change not shown): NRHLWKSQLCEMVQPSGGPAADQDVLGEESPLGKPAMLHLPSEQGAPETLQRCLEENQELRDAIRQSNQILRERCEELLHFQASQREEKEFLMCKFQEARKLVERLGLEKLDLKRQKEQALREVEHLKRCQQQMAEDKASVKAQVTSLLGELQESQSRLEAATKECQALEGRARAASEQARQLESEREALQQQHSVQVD
pIC50: −log10 of the molar value. Where no end group is shown, it is not given here.
readoutLabel: pIC50

Query: Given the entry PAKKSEELVAEAHNLCTLLENAIQDTVREQDQSFTALDWSWLQTE [IKK-2 45-mer] , what pIC50 was observed with GST-NEMO-(2–200) and biotinylated IKK-1/2 chimeric 44-mer peptide (Homo sapiens)?
Reply: 8.15 to 9.00
